Where do these numbers come from? They come from patent EP1216701A1.

Measured FF-MAS Dimethylst.-trien (482 m/z), listed per entry.
Tested on: liver slices
Assay: Influence of bile acids on methylsterols and dimethylsterols in liver slices
Type: cell-based
Details: bile acids 160 µM for 9-h, n=2 for UDCA, CDCA, DCA, n=3 for CA and LCA, ratio to campesterol

CPD_SMILES	TEST_VALUE
C[C@H](CCC(=O)O)[C@H]1CC[C@H]2[C@@H]3CC[C@@H]4C[C@H](O)CC[C@]4(C)[C@H]3C[C@H](O)[C@]12C	103 % of control
C[C@H](CCC(=O)O)[C@H]1CC[C@H]2[C@@H]3[C@@H](O)C[C@@H]4C[C@H](O)CC[C@]4(C)[C@H]3CC[C@]12C	204 % of control
C[C@H](CCC(=O)O)[C@H]1CC[C@H]2[C@@H]3CC[C@@H]4C[C@H](O)CC[C@]4(C)[C@H]3CC[C@]12C	91 % of control

Query string: State its FF-MAS Dimethylst.-trien (482 m/z) for this compound: C[C@H](CCC(=O)O)[C@H]1CC[C@H]2[C@@H]3[C@H](O)C[C@@H]4C[C@H](O)CC[C@]4(C)[C@H]3CC[C@]12C
Result string: 128 % of control

---

Measured Trienol FF-MAS (m/z 482), listed per entry.
Tested on: HepG2 cells
Experiment: Accumulation of cholesterol precursors / C29-sterols (MAS) in HepG2 cells, GC/MS (SIM)
Format: cell-based, Human
Conditions: HepG2 cells; Conc. 10 µM (combinations 10 + 10 µM); 12 h; n=2; ± SD
Experimental: Human hepatoma HepG2 cells were cultured to confluency in 60-mm dishes in phenol-red-free Dulbecco's modified Eagle's medium (DMEM) containing Pen-Strep (100 µg/ml), glucose (10 mM), sodium bicarbonate (45 mM) and glutamine (4 mM) supplemented with 10% fetal calf serum as described previously (24). At the beginning of the experiment the medium was changed to serum-free DMEM supplemented with 10% lipid-free "controlled process serum replacement" (CPSR-1). […]

MOLECULE	Trienol FF-MAS (m/z 482)
COc1ccc(CCN(C)CCCC(C#N)(c2ccc(OC)c(OC)c2)C(C)C)cc1OC (centres unmarked)	498 ± 103 % of control
CC(=O)[C@@]1(O)CC[C@H]2[C@@H]3CC=C4C[C@@H](O)CC[C@]4(C)[C@H]3CC[C@@]21C [17α-OH-Pregnenolone, 17α-Hydroxy-pregnenolone]	242 ± 19 % of control

Query string: State its Trienol FF-MAS (m/z 482) for this molecule: CC(=O)[C@@]1(O)CC[C@H]2[C@@H]3CCC4=CC(=O)CC[C@]4(C)[C@H]3CC[C@@]21C [17α-OH-Progesterone, 17α-Hydroxy-progesterone]
Result string: 406 ± 52 % of control

Query string: State its Trienol FF-MAS (m/z 482) for this molecule: CC(=O)[C@H]1CC[C@H]2[C@@H]3CCC4=CC(=O)CC[C@]4(C)[C@H]3CC[C@]12C
Result string: 3335 ± 397 % of control

Query string: State its Trienol FF-MAS (m/z 482) for this molecule: CC(=O)[C@H]1CC[C@H]2[C@@H]3CC=C4C[C@@H](O)CC[C@]4(C)[C@H]3CC[C@]12C
Result string: 213 ± 15 % of control

---

System: HepG2 cells
Experiment: Accumulation of cholesterol precursors / C29-sterols (MAS) in HepG2 cells, GC/MS (SIM)
Type: cell-based, Human
Conditions: HepG2 cells; bile acids 160 µM; 12-h; n=3; mean ± SD; ratio to internal standard epicoprostanol
Description: Human hepatoma HepG2 cells were cultured to confluency in 60-mm dishes in phenol-red-free Dulbecco's modified Eagle's medium (DMEM) containing Pen-Strep (100 µg/ml), glucose (10 mM), sodium bicarbonate (45 mM) and glutamine (4 mM) supplemented with 10% fetal calf serum as described previously (24). At the beginning of the experiment the medium was changed to serum-free DMEM supplemented with 10% lipid-free "controlled process serum replacement" (CPSR-1). […]
Measured Methylst.-dien (470 m/z), listed per entry.

// known answers, use as guide
CPD_SMILES	Methylst.-dien (470 m/z)
C[C@H](CCC(=O)O)[C@H]1CC[C@H]2[C@@H]3[C@H](O)C[C@@H]4C[C@H](O)CC[C@]4(C)[C@H]3CC[C@]12C	187 ± 5 % of control
C[C@H](CCC(=O)O)[C@H]1CC[C@H]2[C@@H]3CC[C@@H]4C[C@H](O)CC[C@]4(C)[C@H]3C[C@H](O)[C@]12C	211 ± 6 % of control

Query string: State its Methylst.-dien (470 m/z) for this compound: C[C@H](CCC(=O)O)[C@H]1CC[C@H]2[C@@H]3CC[C@@H]4C[C@H](O)CC[C@]4(C)[C@H]3CC[C@]12C
Result string: 459 ± 29 % of control

Query string: State its Methylst.-dien (470 m/z) for this compound: C[C@H](CCC(=O)O)[C@H]1CC[C@H]2[C@@H]3[C@@H](O)C[C@@H]4C[C@H](O)CC[C@]4(C)[C@H]3CC[C@]12C
Result string: 509 ± 19 % of control

---

System: HepG2 cells
Assay: Accumulation of cholesterol precursors / C29-sterols (MAS) in HepG2 cells, GC/MS (SIM)
Assay type: cell-based, Human
Settings: HepG2 cells; bile acids 160 µM; 12-h; n=3; mean ± SD; ratio to internal standard epicoprostanol
VALUE_TYPE: FF-MAS Dimethylst.-trien (482 m/z)

CPD_SMILES	ASSAYED_TARGET	VALUE_TYPE	TEST_VALUE
C[C@H](CCC(=O)O)[C@H]1CC[C@H]2[C@@H]3CC[C@@H]4C[C@H](O)CC[C@]4(C)[C@H]3C[C@H](O)[C@]12C	HepG2 cells	FF-MAS Dimethylst.-trien (482 m/z)	226 ± 17 % of control
C[C@H](CCC(=O)O)[C@H]1CC[C@H]2[C@@H]3[C@H](O)C[C@@H]4C[C@H](O)CC[C@]4(C)[C@H]3CC[C@]12C	HepG2 cells	FF-MAS Dimethylst.-trien (482 m/z)	197 ± 10 % of control

Query string: State its FF-MAS Dimethylst.-trien (482 m/z) for this compound: C[C@H](CCC(=O)O)[C@H]1CC[C@H]2[C@@H]3CC[C@@H]4C[C@H](O)CC[C@]4(C)[C@H]3CC[C@]12C
Result string: 453 ± 88 % of control

Query string: State its FF-MAS Dimethylst.-trien (482 m/z) for this compound: C[C@H](CCC(=O)O)[C@H]1CC[C@H]2[C@@H]3[C@@H](O)C[C@@H]4C[C@H](O)CC[C@]4(C)[C@H]3CC[C@]12C
Result string: 309 ± 51 % of control
